- System: NCI-H460 lung
- Protocol description: NCI-60 one-dose screen, 48 h (100 = growth as untreated, 0 = no growth, -100 = all killed)
- Experimental parameters: 10 µM
The panel holds about 83,000 compounds, 20% with a hit somewhere; the sample as a whole holds those more often. Activity calls are given as the source filed them. The calls were made as follows: active = growth percent below 10; inactive = the rest. Starred links: 1 amine or outer side, 2 acyl side, 3 side chain; linkers in the order of their positions; H or OH if unused. Positions of bridges follow the written chain, without caps; N, C: chain ends. Non-standard residues stand in square brackets, D forms with d. Residues, ends and D or L forms follow the SMILES beside them. Chains are numbered I, II in the order given. Actinocin(9to1) = Cc1c2oc3c(C)ccc(C(=O)[*:1])c3nc-2c(C(=O)[*:2])c(N)c1=O; aThr = C[C@H](O)[C@H](N)C(=O)O; NMeV = CN[C@H](C(=O)O)C(C)C; Sar = CNCC(=O)O
Observed property: growth

CN1CCN(c2ccc3nc(-c4ccc5nc(-c6ccc(O)cc6)[nH]c5c4)[nH]c3c2)CC1 ... 107% (inactive)

Next molecule, growth to be filled in.
Q. Recorded growth for Cc1c2oc3c(C)ccc(C(=O)N[C@@H]4C(=O)N[C@H](C(C)C)C(=O)N5CCC[C@H]5C(=O)N(C)CC(=O)N(C)[C@@H](C(C)C)C(=O)O[C@H]4C)c3nc-2c(C(=O)N[C@@H]2C(=O)N[C@H](C(C)C)C(=O)N3CCC[C@H]3C(=O)N(C)CC(=O)N(C)[C@@H](C(C)C)C(=O)O[C@H]2C)c(N)c1=O (I: [aThr][dV]P[Sar][NMeV] / II: [aThr][dV]P[Sar][NMeV]; ester I:1-I:C, II:1-II:C; linker I:N-II:N via Actinocin(9to1)) , please?
A. -22.4% (active)
